TEST: reversal of MRP1-mediated doxorubicin resistance, pilot screen, H69AR cells, doxorubicin co-treatment (AID 601)
ASSAY CONTEXT: H69AR cells + 2 uM doxorubicin, CellTiter-Glo, 72 h; measured here: viability with 2 uM doxorubicin; at 10 µM; stronger effect = lower value
# viability annotations
PROPERTY: viability (%)

> print(dat)
                                    molecule  readout.units  assay.value
 1  Cn1c(=O)c2c(nc(N3CCN(c4ccccc4)CC3)n2CCCc2ccccc2)n(C)c1=O              %         82.2
 2         CCN1C(=O)/C(=C/N(C)c2ccccc2)OC1=S              %         94.7
 3  COc1cc(C(=O)NCC(=O)OCC(=O)c2ccc[nH]2)cc(OC)c1OC              %         95.3
 4  O=C(Nc1ccccc1C(=O)N1CCOCC1)c1cccc(S(=O)(=O)N2CCCC2)c1              %         89.3
 5   O=C(CSc1nc(O)cc(=O)n1-c1ccccc1)N1CCCCC1              %         96.4
 6  Cc1ccccc1N1CC(c2nc3ccccc3[nH]2)CC1=O (stereo not given)              %         96.7
 7  COC(=O)c1ccc(C2CC(=O)Nc3cc(OC)c(OC)c(OC)c32)cc1 (stereo not given)              %         77.8
 8  O=C(CN1CCC(O)(c2ccc3c(c2)OCO3)CC1)OC1CCCCC1              %         93.4
 9  Cc1nnc(NC(=O)CSc2nnc(-c3ccc(S(=O)(=O)N4CCCC4)cc3)n2C)s1              %         92.6
10  O=C(c1cc(-c2ccco2)nn1-c1cccc(Cl)c1)N1CCCCC1              %         79.2

---

TEST: growth suppression of yeast trafficking mutant, preliminary HTS, modulators of trafficking downstream of Golgi apparatus project, 1536-format plate, OD 615 nm (AID 637)
ASSAY CONTEXT: yeast transport mutant growth, absorbance 615 nm, 18 h; stronger effect = higher value
Recorded inhibition for the following compounds
PROPERTY: inhibition (%)

> print(dat)
                                    compound  readout.units  assay.value
 1  c1cc2c(cc1Nc1nc(-c3ccc4c(c3)OCO4)cs1)OCCO2              %          -10
 2  COc1ccc(CCNc2oc(COc3ccc(F)cc3)nc2C#N)cc1              %         1.27
 3  COc1cc(C)nc(N2CCCC(C(=O)Nc3cccc(Cl)c3Cl)C2)n1 (stereo not given)              %        -10.2
 4  CC(O)c1cc2c(cc1NC(=O)c1cnn3c1NC(c1ccco1)CC3C(F)(F)F)OCO2 (stereo not given)              %        -1.97
 5  CCOC(=O)N1CCC(N(CCCOC)C(=O)Nc2ccc(CC)cc2)CC1              %         -2.3
 6  CC(C)CCNC(=O)NC(=O)CSc1nnc(-c2ccccc2Br)o1              %            0
 7  O=C1C2C3C=CC(C3)C2C(=O)N1CNc1ccc(O)cc1 (stereo not given)              %         -4.6
 8                   Cc1c(N(C)C)nc2ccccc2c1N              %         2.54
 9  CCCCCC1CC(CC#CCN2CCOCC2)C(=O)O1 (stereo not given)              %        -7.78
10  CN1CCN(c2nc3c(c(=O)n(C)c(=O)n3C)n2Cc2cccc3ccccc23)CC1              %         0.16
11  COC(=O)c1ccc2c(=O)n(CC3CCCO3)c(=S)[nH]c2c1 (stereo not given)              %         4.19
12         COCCn1c(-c2ccco2)nc2nc3ccccc3nc21              %         3.28
13  CCCOc1ccc(N2C(=O)CC(NCCCN3CCC(C(N)=O)CC3)C2=O)cc1 (stereo not given)              %         1.27
14         Cc1cccc(C)c1NC(=O)COC(=O)c1nonc1N              %        -7.09
15  CCN(CC)C(c1ccc(C)cc1)c1nnnn1C1CCCCC1 (stereo not given)              %        -4.73
16  CC(=O)Nc1ccc(S(=O)(=O)N(C2=NCC(C)S2)c2ccccc2)cc1 (stereo not given)              %        -4.35
17  Cc1ccc(CCNC(=O)C2CCCN2S(=O)(=O)c2ccc3c(c2)CCC(=O)N3)cc1 (stereo not given)              %         11.2
18  CC(=O)OCC(=O)[C@@]1(O)CC[C@H]2[C@@H]3CCC4=CC(=O)C=C[C@]4(C)[C@H]3[C@@H](O)C[C@@]21C              %        -1.83
19  Cc1ccccc1N1CC(c2nc3ccccc3[nH]2)CC1=O (stereo not given)              %        -5.71
20    Cc1ccc(S(=O)(=O)NCCCNC(=O)N2CCOCC2)cc1              %         3.81
21       COc1ccccc1OCc1ccc(C(=O)Nc2ccncc2)o1              %         6.61
22     Cc1cc(=O)c2n(Cc3ccccc3Cl)nc[n+]2[nH]1              %            0
23        CC(=O)N1CN(C2CCCC2)Cc2c1sc1c2CCCC1              %         0.36
24  CCCC(=O)Nc1cc(-c2nnc(OC)c3ccccc23)ccc1N1CCOCC1              %         3.71
25  O=C(NCCCN1CCCC1=O)c1ccc2c(=O)n(Cc3ccco3)c(=S)[nH]c2c1              %         10.5
26  CC(C)CN(CC(C)C)C(=O)C12CCC(C)(C(=O)C1)C2(C)C (stereo not given)              %        -7.62
27  CN(Cc1ccccc1)C(=O)c1cc(-c2ccc(Br)cc2)on1              %        -3.45
28  COc1cccc(CN(C(=O)c2cc3ccccc3oc2=O)C2CC2)c1              %            0
29      O=C(COC(=O)c1cnccn1)Nc1ccc2c(c1)OCO2              %         2.46
30  Cc1cccc2cc(C#N)c(NCCNC(=O)NC3CCCCC3)nc12              %        -3.45
31  O=C(NCC(=O)N(c1cccnc1)C(C(=O)NC1CCCCC1)c1cccnc1)c1ccco1 (stereo not given)              %         4.91
32  CCn1c(SCC(=O)Nc2ccc3c(c2)OCO3)nnc1-c1ccccc1O              %        -0.33
33  Cc1ccc(-c2nnc(SCC(=O)N3c4ccccc4NC(=O)C3(C)C)n2N)cc1              %         0.36
34          COc1ccc(NC(=O)COc2ccccc2)c(OC)c1              %         0.16
35  COc1ccc(CCNS(=O)(=O)c2ccc3c(c2)CCN3C(=O)CCC(=O)O)cc1OC              %        -4.91
36         Cc1cccc2cc(C#N)c(SCCN3CCCCC3)nc12              %        -0.18
37  O=C(COc1ccc2c(c1)OCO2)NC12CC3CC(CC(C3)C1)C2              %        -6.07
38  Fc1ccc(C2C3=C(Nc4ncnn42)c2ccccc2OC3c2ccncc2)cc1 (stereo not given)              %        -3.71
39  C[C@@H]1CCC[C@H](C)N1NC(=O)c1ccc(Cl)c(S(N)(=O)=O)c1              %         -6.5
40  O=C1CCC(c2ccccc2)N1C(=O)c1cccnc1 (stereo not given)              %        -4.29
41  CCOC(=O)N1CCC(N(C(=O)Nc2ccc(Cl)c(Cl)c2)C(C)CC)CC1 (stereo not given)              %         0.79
42  CC(COc1ccccc1)N(CCCl)Cc1ccccc1 (stereo not given)              %        -3.33
43  COc1cccc(-c2csc(N3CCN(CC(=O)Nc4ccc5c(c4)OCO5)CC3)n2)c1              %            0
44  O=C(CCCn1c(=S)[nH]c2cc3c(cc2c1=O)OCO3)N1CCN(c2ccccc2F)CC1              %        -2.95
45  COc1ccc(Cl)cc1NC(=O)CCN1CCN(c2ccccc2C)CC1              %        -0.36
